# Test system: NCI-H510 multicellular tumor spheroid growth, % test/control
# assay: Anticancer human tumor NCI-H510 cell line growth inhibition [Asc];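 also: spheroids exposed to agents for 7 days; 100% = DMSO vehicle control wells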
# condition parameters: second compound 0.0316 µM; first compound 1 µM; hits give low values
# Source text: Multicellular complex tumor spheroid response to apoptosis pathway targeting inhibitors Alrizomadlin, Pelcitoclax, and Dasminapant in combination with a variety of drugs and investigational agents in selected tumor cell lines […] Compounds. […] If the clinical Cmax for an agent had not been determined, the highest concentration tested was 10 microM. […]
Measured viability, T/C, listed per entry for reference.

>>> measured_value("C=CC(=O)N1CCN(c2nc(=O)n(-c3c(C)ccnc3C(C)C)c3nc(-c4c(O)cccc4F)c(F)cc23)C(C)C1 (configuration not stated) + CNC(C)C(=O)NC1CN(S(=O)(=O)c2cccc(S(=O)(=O)N3CCC4CCC(C(=O)NC(c5ccccc5)c5ccccc5)N4C(=O)C(NC(=O)C(C)NC)C3)c2)CCC2CCC(C(=O)NC(c3ccccc3)c3ccccc3)N2C1=O")
"119%"
>>> measured_value("O=C(c1cc(Cc2n[nH]c(=O)c3ccccc23)ccc1F)N1CCN(C(=O)C2CC2)CC1 + CNC(C)C(=O)NC1CN(S(=O)(=O)c2cccc(S(=O)(=O)N3CCC4CCC(C(=O)NC(c5ccccc5)c5ccccc5)N4C(=O)C(NC(=O)C(C)NC)C3)c2)CCC2CCC(C(=O)NC(c3ccccc3)c3ccccc3)N2C1=O")
"109%"

Request: Given the compound C=C(F)C(=O)N1CCN(c2nc(OCC3CCCN3C)nc3c2CCN(c2cccc4cccc(Cl)c24)C3)CC1CC#N (configuration not stated) + CNC(C)C(=O)NC1CN(S(=O)(=O)c2cccc(S(=O)(=O)N3CCC4CCC(C(=O)NC(c5ccccc5)c5ccccc5)N4C(=O)C(NC(=O)C(C)NC)C3)c2)CCC2CCC(C(=O)NC(c3ccccc3)c3ccccc3)N2C1=O , what is its reported viability, T/C?
Response: 108%

Request: Do the same for C#Cc1c(F)ccc2cc(O)cc(-c3ncc4c(N5CC6CCC(C5)N6)nc(OCC56CCCN5CC(F)C6)nc4c3F)c12 (configuration not stated) + CNC(C)C(=O)NC1CN(S(=O)(=O)c2cccc(S(=O)(=O)N3CCC4CCC(C(=O)NC(c5ccccc5)c5ccccc5)N4C(=O)C(NC(=O)C(C)NC)C3)c2)CCC2CCC(C(=O)NC(c3ccccc3)c3ccccc3)N2C1=O please
Response: 106%

Request: Do the same for CCN1CCN(Cc2ccc(Nc3ncc(F)c(-c4cc(F)c5nc(C)n(C(C)C)c5c4)n3)nc2)CC1 + CNC(C)C(=O)NC1CN(S(=O)(=O)c2cccc(S(=O)(=O)N3CCC4CCC(C(=O)NC(c5ccccc5)c5ccccc5)N4C(=O)C(NC(=O)C(C)NC)C3)c2)CCC2CCC(C(=O)NC(c3ccccc3)c3ccccc3)N2C1=O please
Response: 136%

Request: Do the same for O=C(c1ccc(F)c(F)c1Nc1ccc(I)cc1F)N1CC(O)([C@@H]2CCCCN2)C1 + CNC(C)C(=O)NC1CN(S(=O)(=O)c2cccc(S(=O)(=O)N3CCC4CCC(C(=O)NC(c5ccccc5)c5ccccc5)N4C(=O)C(NC(=O)C(C)NC)C3)c2)CCC2CCC(C(=O)NC(c3ccccc3)c3ccccc3)N2C1=O please
Response: 90.3%

Request: Do the same for COc1c(OCCCN2CCOCC2)ccc2c3n(c(=NC(=O)c4cnc(N)nc4)nc12)CCN3 + CNC(C)C(=O)NC1CN(S(=O)(=O)c2cccc(S(=O)(=O)N3CCC4CCC(C(=O)NC(c5ccccc5)c5ccccc5)N4C(=O)C(NC(=O)C(C)NC)C3)c2)CCC2CCC(C(=O)NC(c3ccccc3)c3ccccc3)N2C1=O please
Response: 113%
